apparent KD of MS2 coat protein listing for selected sequences.
system: MS2 coat protein; assay: apparent KD of MS2 coat protein, switch ON state; designed switch direction (-1 OFF switch, 1 ON switch): -1; higher = weaker reporter binding; settings: FMN input: 0 or 200 uM; Eterna round: R93 (includes R88 designs)
TEST_READOUT: apparent KD of MS2 coat protein (nM)

PRIMARY_SEQUENCE	OBSERVED_VALUE
UUUAUGUGAGGAUAUACGAAUAGUAAGUAAGUAUUACAGACGUAGAAGGCACAUGAGGAUCACCCAUGUGAAUA [JR_Exc004_Sub307]	32.7
AAAAAGUCAGGAUAUACAAAAGUGCGAAAGCACAAAAAGGGACAUGAGGAUCACCCAUGUAGAAGGGACAAGAA [Married to this design, 61% 4]	73.3
AGCUAGUCAGGAUAUACGAACAUGUCAAAAGACGAGAAGGGACAUGAGGAUCACCCAUGUAGAAGGGACUAGCA [Diamond 21]	87.5
AAUGGUGCAGGAUAUACAUGAGGAUCACCCAUGUACAUCAGACAUAUGGUCGAAGCAUGUAGAAGGGCACCAAA [Ex 3May 56]	145
AAAAAUGGAGGAUAUACAUGAGGAUCACCCAUGUGUGGGCAUACUGUGUCGGCGUCAGGUAGAAGGCCAAAAAA [Gilly Gone Silly 27 - Jieux - Exclusion 3]	36.5
AAAAAGCUAGGAUAUACAUGAGGAUCACCCAUGUAAAAAAAAAAAAAGGGAAAAAAAAGUAGAAGGAGCAAAAA [Merankhre Mentuhotep VI]	18.4
AAGAUCAGAGGAUAUACAUAAGGUGAUGGAGACAUCGCCAAACAUGAGGAUCACCCAUGUAGAAGGCUGAUCAA [Mat - Exclusion 2 - JL mod - D62]	36.8
AAAAAGUGAGGAUAUAGCAAAGGUCACGAAAGUGACAAAGGCUAGAAGGCACAUGAGGAUCACCCAUGUCCAAG [Mat - Exclusion 4 - Eli mod - D98]	28.6
AGAUCAUCAGGAUAUACAUAGGUGAAAAAAGUAAAUCCACUACAUGAGGAUCACCCAUGUAGAAGGGAUGAUCA [Ex2 Design 176: Random 4]	39.1
GCUGUGGAAGGAUAUACAUGAGGAUCACCCAUGUGAGAGAAAAAAGUGAGAAAGAAAAGUAGAAGGUCCGUAGG [salish99-ex3-98]	40.3
AAGAACGCAGGAUAUACAAAAUAAAAGAAAAGAAAGAAAGAACAUGAGGAUCACCCAUGUAGAAGGGCGAAGAA [Sewadjkare]	52.2
AGGAAACAUGAGGAUCACCCAUGUAAGGAUAUCAGAAAGAAAAGAAAAGAAAGAAGAAUGAGAAGGUACAAGAA [Horus Bird]	29.1
AAAAAACAUGAGGAUCACCCAUGUCAGGAUAUGCUCAACAAUAUUCCAAAAAAGAACGGUAGAAGGGACAGGAA [Bilbo Confounded 25 - Jieux - Exclusion 1]	30.4
AACAGUACAGGAUAUACAUGAGGAUCACCCAUGUGAAGAUUAAGUGGAGUACCACAAAGUAGAAGGGUACUGGA [Ruby 89]	28.1
UUAGAACAUGAGGAUCACCCAUGUGAGGAUAUGCAAUACUAGCGACAAGAUCGUUAUAGCAGAAGGCACGUAGU [JR_EXc001_Sub807]	38.6
AAAAAGCGAGGAUAUGCAAGAAAAAAAAAAAAAAAAAAGGGACAUGAGGAUCACCCAUGUAGAAGGCGCAAAAA [Diamond 65]	54.9
AAGAACUGAGGAUAUACAAAAUAAAAGAAAAGAAAGAAAGAACAUGAGGAUCACCCAUGUAGAAGGCAGAAGAA [Sekhemre Khutawy Sobekhotep I]	27.6
AAAAAACAUGAGGAUCACCCAUGUCAGGAUAUGCUCAGCAAUAUUCCAAUAAAGAACGGUAGAAGGGACAGGAA [Bilbo Confounded 24 - Jieux - Exclusion 1]	24.9
GCUGGCGAAGGAUAUACAUGAGGAUCACCCAUGUGAGAGAAAAAAGUGAGAAAGAAAAGUAGAAGGUCGUUAGG [salish99-ex3-96]	31.7
AAAAAACAUGAGGAUCACCCAUGUCAGGAUAUGCGAAGCAAAAAAAAAAAAAAGCGAAGUAGAAGGGACUAAAA [Exclusion1 Malc#6]	24.4
AAAAAACAUGAGGAUCACCCAUGUGAGGAUAUGCGAAAAUAAAAUAAAAUAAUAAAAAGCAGAAGGCACAAAAA [58%, Sh'dynasty, 1]	67.7
CCUGUGUGAGGAUAUGGUAUAAAAAAAAAAAAAUAGCUCCUCCAGAAGGCACAUGAGGAUCACCCAUGUCGUGG [Jolly's Folly 17 - Jieux - Exclusion 4]	26.9
UAAAGACAUGAGGAUCACCCAUGUGAGGAUAUCGGUGACUAUAAAAAAAAAUAGUCACCGAGAAGGCACAGAAA [JR_Exc001_Sub301]	43.2
AGUCAUACAGGAUAUACAUGAGGAUCACCCAUGUAAAUCCUAAAAAGAAAAAACUCAUGUAGAAGGGUAUGACA [EX3 223: Super Stable 23]	16.1
ACUUGACAUGAGGAUCACCCAUGUCAGGAUAUAGUAGGACAAAUAAAUAAAAGUUCUACUAGAAGGGAUAUGGG [Design 20: G-U+ 4]	20.7

* * *

test system: K4 kissing-loop RNA reporter; test: apparent KD of K4 kissing-loop reporter; higher = weaker reporter binding; details: Eterna round: R107; input ligand: arginine 13.2 mM;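 further: bound reporter read as fluorescence of individual clusters on recovered sequencing chips by microscopy, with normalized cluster intensities fitted with a binding model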
Would you mind labelling by apparent KD of K4 kissing-loop reporter? At or over 0.1 µM is class 1, under is class 0.

PRIMARY_SEQUENCE	SYSTEM_NAME	CLASS_LABEL
GAUGAUCGCGCGGCCGCCACUGGUCAGUGAUGUUGACAUUAAUGCGCCGAGUAGUAACGGCGCAACAGGACCGGGCGCGAUGUAG [#11 K4 Tryptophan B Same State]	K4 kissing-loop RNA reporter	class 1
CUUAAGAUAUGAGUGAUGUUCAUGUCCGAAGGAGCGUGCGAAAGCACAGGUAGGUCGCGGAUGUGAGUGAUGUUCAUGUAAGCGA [KL-XArg-A12 #analogue]	K4 kissing-loop RNA reporter	class 1
UGUCAUUGGUCGGAUACCAGUUGAUGACGAAUACGUCAACUGGAGUGAUGUUCCUAAAACAACCCUUGGCAGCCGACCGAUGACU [MAT - Same State Theophlline B - Mod of Eli - D1]	K4 kissing-loop RNA reporter	class 1
UGUGGAGAAUAUGAUACCAGCAGUGAGAGAGAGGAAGUAUAGUGAUGUUAUAUGAGAGAAUGCCCUUGGCAGCAUAUGUAGAAGG [SSTheophylB.F]	K4 kissing-loop RNA reporter	class 1
AAGACCUGCAUCGAUACCAGCCCAGUGAUGUUGGGCUGCUCUCCAUGGGUGCCAGACACGGGCCCUUGGCAGCGAGGUAGGGCCC [Zazadilabi]	K4 kissing-loop RNA reporter	class 1
UCUGGAGUAUAUGAUACCAGCAGUGAGAGACAGGAAGUAUAGUGAUGUUAUAUGAGAGAAUGCCCUUGGCAGCGUGUGCGGUGGC [SSTheophylB.Q]	K4 kissing-loop RNA reporter	class 0
CUUGAGACAUGAGUGAUGUUCAUGUCCGAAGGAGCGUGCGAAAGCACAGGUAGGUCGCGGACGUGAGUGAUGUUCAUGUGAGCGA [KL-XArg-A10 #analogue]	K4 kissing-loop RNA reporter	class 1
UGACUGGAUGGAAGGAGCGCUAAACUCCUAGUGAUGUUAGGGACAUGAGGCAUAGCCUUGAAGCAGGUAGGUCGCCAUCUAGUCU [FiskerMod 29 - Jieux - Same State - Arginine B]	K4 kissing-loop RNA reporter	class 1
UUGUUAUGAUAAAAUCCUGUUUGAUAAAGACAGGAUAUAGAAAAUACUAGAAGGGUCAUUAUAUGCAGUGAUGUUGCAAAUAAGU [Exclusion FMN A Gf 22]	K4 kissing-loop RNA reporter	class 0
AGAGUUAUGCGAGGAUAUGCAGUUAGUACUCAAAGAGUACUAACGGCAGAGUGAUGUUCUGUGAAAGCAGAAGGUGCAUAACUCA [Omei KL FMN B SS B v8]	K4 kissing-loop RNA reporter	class 1
AAACAUUGGUGCGAUACCAGCUGAUCGGAAACGAUCAUGCUGGAGUGAUGUUCCAGGAAAAGCCCUUGGCAGCGCACCGAUGAAA [MAT - Same State Theophlline B - Mod of Eli - D29]	K4 kissing-loop RNA reporter	class 0
UCUCCAAAGUCGGCCGCCACUCCGGGCCCUAUAAAUGGGCGCAGUGAUGUUGCGGCUAGGCCUCUGAGGACCGGGACUUUGUAGA [Estiorquin]	K4 kissing-loop RNA reporter	class 0

* * *

tested on: MS2 coat protein; experiment: apparent KD of MS2 coat protein; designed switch direction (-1 OFF switch, 1 ON switch): -1; higher = weaker reporter binding; conditions: input ligand: FMN 200 uM

PRIMARY_SEQUENCE	apparent KD of MS2 coat protein, nM
UAAGCAAGUGAGCCGAUUCACAUGAGGAUCACCCAUGUAAGAGAGGAUAUUUGAUUGGAUCGAUUAGAGAAGGUUCUAAUGUGG [Eternabot solution 25] (Eterna round: R96, puzzle: Exclusion NG 3)	87.2
AAAUGACAUGAGGAUCACCCAUGUGGCCCUUAGACUCAUAUCGAGGAUAUCCAGGGCCGGGCCGUGGAGAAGGCGAAUUAAAAU [Edatriusti] (Eterna round: R96, puzzle: Exclusion NG 3)	32.1
UGCGGUAGAGGAUAUACGUAGAAAUAGAUUCAUGUAAAACUACAUGAGGAUCACCCAUGUAGAAGGCUAUCGCU [JL-ex2-4.27 Eli mod] (Eterna round: R97, puzzle: Exclusion 2)	265
UUUUUAUAUGAAGGAUAUACUUAACAUGAGGAUCACCCAUGUGGUGUUGUGAGUGAGUGAGUUUAGUAGAAGGUCAAUUAUCUU [JMF's solution 14] (Eterna round: R96, puzzle: Exclusion NG 2)	699
CCGGUUGGCGCAGGAUAUACAUGAGGAUCACCCAUGUUCAUGAGGAUCGCCCAUGAGUUUUUGUUGUAGAAGGGUGGCCCGGCC (Eterna round: R96, puzzle: Exclusion NG 2)	92.4
